Kindly state composite z-score for each of the entries shown.
Tested on: XIP peptide (Xip251-270) binding
METHOD_DESCRIPTION: XIP fragment 251-270 binding compounds – biochemical, small-molecule microarray, fluorescence 635/667 nm, 0.1 µg/mL protein, primary screen (AID 1182)
CONDITION_CONTEXT: fluorescent protein binding, 635 nm, higher = more signal, called active from +8 up or from −8 down
The source made the active and inactive calls.

Prompt: Write down the reported composite z-score of COc1ccc([Si](C)(C)[C@@H]2[C@@H](CC(=O)N(CCO)Cc3ccccc3)O[C@]3(C(=O)N(Cc4ccc(N5CCOC5=O)cc4)c4ccccc43)[C@H]2C)cc1 , test system: XIP peptide (Xip251-270) binding.
Completion: 2.73 (inactive)

Prompt: Also COC(=O)[C@@]1(Cc2ccccc2)[C@H]2c3cc(C(=O)N(C)C)n(Cc4ccc(O)c(OC)c4)c3C[C@H]2CN1C(=O)c1ccccc1 , if possible.
Completion: 0.332 (inactive)

Prompt: Also COc1cc(NN2C(C(O)c3ccc(I)cc3)C=CC3C(=O)N(C)C(=O)C32)cc(OC)c1OC (stereo not given) , if possible.
Completion: 1.42 (inactive)

Prompt: Also CN(C)CCCNC(=O)[C@@]1(Cc2ccccc2I)c2ccccc2C(=O)N(Cc2ccccc2Cl)[C@H]1c1ccc(CO)cc1 , if possible.
Completion: 0.191 (inactive)

Prompt: Also O=C(O)[C@@]1(Cc2ccccc2)COC(c2ccc(OCCCO)cc2)=N1 , if possible.
Completion: -0.781 (inactive)

Prompt: Also CC(C)(C)N1CC=CC23O[C@@H]4C=CCCOC(=O)C4[C@H]2C(=O)N(CCCO)[C@@H]3C1=O (stereo not given in full) , if possible.
Completion: -0.508 (inactive)

Prompt: Also CCCc1cc2c(n1Cc1ccc(OC)cc1)C(C)C1CN(C(=O)c3ccccc3)C(C)(C(=O)OC)C21 (stereo not given) , if possible.
Completion: -0.0607 (inactive)

Prompt: Also COc1cccc(C)c1NC(=O)O[C@H]1[C@H](OC(=O)Nc2ccccc2)[C@H](OC(=O)Nc2ccccc2)[C@@H](OC)O[C@@H]1CO , if possible.
Completion: 1.57 (inactive)

Prompt: Also O=C1C[C@@](C(=O)O)(c2ccc([N+](=O)[O-])cc2)[C@@H](c2ccc(CO)cc2)N1CC12CC3CC(CC(C3)C1)C2 , if possible.
Completion: 0.312 (inactive)

Prompt: Also CC(C)C[C@@H]1NC(=O)[C@@H]2C[C@H](C(=O)NCCCC[N+](C)(C)C)[C@H](c3cccc(OCCO)c3)N2C1=O , if possible.
Completion: 0.974 (inactive)

Prompt: Also COCCCNC(=O)[C@@H]1c2ccccc2C(=O)N(c2ccc(C)cn2)[C@H]1c1ccc(CO)cc1 , if possible.
Completion: -0.0692 (inactive)

Prompt: Also C[N+](C)(C)CCCCCCNC(=O)[C@@H]1C[C@@H]2C(=O)NCC(=O)N2[C@@H]1c1cccc(OCCO)c1 , if possible.
Completion: 0.525 (inactive)

Prompt: Also OCc1ccc(-c2cc[n+](Cc3cccc(OC(F)(F)F)c3)cc2)cc1 , if possible.
Completion: 1.18 (inactive)

Prompt: Also CC(C)C(CO)N1C(=O)[C@@H]2[C@H]3C(=O)OCC=C[C@H]3OC23C=CCN(CCN2CCOCC2)C(=O)[C@@H]13 (stereo not given in full) , if possible.
Completion: 0.708 (inactive)

Prompt: Also COCCCNC(=O)[C@@]1(C)c2ccccc2C(=O)N(c2ccc(C)cn2)[C@H]1c1ccc(CO)cc1 , if possible.
Completion: -0.625 (inactive)

Prompt: Also C[N+](C)(C)CCCCNC(=O)[C@H]1C[C@H]2C(=O)NCC(=O)N2[C@H]1c1ccc(O)cc1 , if possible.
Completion: 0.696 (inactive)

Prompt: Also CCOC(=O)C[C@H]1[C@H](OC(=O)c2cc3ccccc3oc2=O)[C@@H](NC(=O)c2ccc3ccccc3n2)c2cc(OCCCO)ccc2N1C(=O)c1ccc2ccccc2n1 , if possible.
Completion: -0.276 (inactive)

Prompt: Also COC(=O)[C@]1(Cc2ccccc2CN=[N+]=[N-])N=C(c2ccc(OCCCO)cc2)O[C@@H]1c1ccccc1CN=[N+]=[N-] , if possible.
Completion: 0.319 (inactive)

Prompt: Also COCCOC(=O)N1C(=O)[C@@]2(c3cc(C#Cc4ccc(OC)cc4)ccc31)[C@H](c1ccc(OCCO)cc1)N1[C@H](c3ccccc3)[C@H](c3ccccc3)OC(=O)[C@H]1[C@@H]2C(N)=O , if possible.
Completion: 1.12 (inactive)

Prompt: Also O=C(C=C(CC(O)c1cccc(Cl)c1)OCCF)OCCF (stereo not given) , if possible.
Completion: 0.0562 (inactive)

Prompt: Also C[N+](C)(C)CCCC[C@@H]1NC(=O)[C@H]2C[C@@H](C(=O)NCCCCCCN)[C@@H](c3cccc(OCCO)c3)N2C1=O , if possible.
Completion: 1.25 (inactive)

Prompt: Also COCCCNC(=O)[C@@]1(Cc2ccccc2)COC(c2ccc(OCCCO)cc2)=N1 , if possible.
Completion: 0.506 (inactive)

Prompt: Also O=[N+]([O-])c1ccc(C[n+]2ccc(-c3ccc(CO)cc3)cc2)o1 , if possible.
Completion: 0.406 (inactive)

Prompt: Also COC(=O)[C@@]1(Cc2ccc(OC)cc2)[C@H]2c3cc(C(=O)N4CCCC4)n(CCF)c3C[C@H]2CN1C(=O)c1ccccc1 , if possible.
Completion: 1.24 (inactive)

Prompt: Also Cc1cc(C)c(C(O)C2C=CC3C(=O)N(c4ccccc4)C(=O)C3N2Nc2ccc([N+](=O)[O-])cc2)c(C)c1 (stereo not given) , if possible.
Completion: 0.756 (inactive)

Prompt: Also COc1ccc(C(=O)Nc2ccc3c(c2)[C@]2(O[C@@H](CCO)[C@H]([Si](C)(C)c4ccc(OC)cc4)[C@H]2C)C(=O)N3Cc2ccccc2)cc1 , if possible.
Completion: 0.439 (inactive)

Prompt: Also COc1ccc(C(=O)Nc2ccc(CN3C(=O)[C@]4(O[C@H](CCn5cc([C@H](O)c6ccccc6)nn5)[C@@H]([Si](C)(C)c5ccc(OC)cc5)[C@@H]4C)c4ccccc43)cc2)cc1 , if possible.
Completion: -0.211 (inactive)

Prompt: Also COC(=O)c1ccc(OC)c(/C=C\CC(CCc2ccccc2)OC(=O)c2ccncc2)c1 (stereo not given) , if possible.
Completion: -0.661 (inactive)

Prompt: Also CCCCC(=C=CC[C@H](O)c1cccc(OCCO)c1)C[C@H](O)COCc1ccccc1 , if possible.
Completion: 1.4 (inactive)

Prompt: Also COCCOC(=O)N1C(=O)[C@@]2(c3cc(C#CCC(C(=O)OC)C(=O)OC)ccc31)[C@H](c1ccc(OCCO)cc1)N1[C@H](c3ccccc3)[C@H](c3ccccc3)OC(=O)[C@H]1[C@@H]2C(N)=O , if possible.
Completion: 0.335 (inactive)
